Assay: Hydrophobicity investigation of free payloads by UPLC (hydrophobicity model)
Format: physicochemical
Details: Average of runs, D only in seco form, the others observable as single species
attribute.measured: Retention Time (min) seco form, Average

compound: COc1ccc(C2=CN3C(=O)c4cc(OC)c(OCCCOc5cc6c(cc5OC)C(=O)N5C=C(c7ccc(N)cc7)C[C@H]5C=N6)cc4N=C[C@@H]3C2)cc1 [SGD1882, reference compound]
observed.value: 12.55
//
compound: COc1cc2c(cc1OCc1cccc(CC(=O)N3C[C@@H](CCl)c4c3cc(OC(=O)N3CCN(C)CC3)c3ccccc43)c1)N=C[C@@H]1CCCCN1C2=O [D, reference compound]
observed.value: 17.03
//
compound: COc1cc2c(cc1OCc1cc(N)cc(COc3cc4c(cc3OC)C(=O)N3c5ccccc5C[C@H]3CN4)c1)N=C[C@@H]1Cc3ccccc3N1C2=O [DGN549, reference compound]
observed.value: 16.60
//
compound: COc1cc2cc(c1Cl)N(C)C(=O)C[C@](C)(OC(=O)[C@@H](C)N(C)C(=O)CCSC)[C@]1(C)O[C@H]1[C@H](C)[C@@H]1C[C@@](O)(NC(=O)O1)[C@H](OC)/C=C/C=C(\C)C2 [DM1, reference compound]
observed.value: 21.24
